test: Metabolic stability in liver microsomes; format: in vitro ADME, human; details: human, liver microsomes; read-out: LM t1/2
readout-name: half-life at 1 h, 1 µM (min)
Kindly answer with a numeric value in min, unit omitted.

Memo: "COc1cc2ncnc(Nc3ccc(F)c(Cl)c3)c2cc1OCCON1CCN(C)CC1" , reported half-life at 1 h, 1 µM: 25.4

Memo: "COc1cc2ncnc(Nc3ccc(F)c(Cl)c3)c2cc1OCCON1CCOCC1" , reported half-life at 1 h, 1 µM: 21.6

Memo: "COc1cc2ncnc(Nc3cccc(Cl)c3F)c2cc1OCCON1CCN(C)CC1" , reported half-life at 1 h, 1 µM: 30

Memo: "COc1cc2ncnc(Nc3cccc(Cl)c3F)c2cc1OCCON1CCOCC1" , reported half-life at 1 h, 1 µM: 14

Taken from paper PMC10683025.
